target: MERTK (UniProt Q12866); assay: phosphorylation enrichment, bacterial display (enrichment ratio); higher = better substrate or ligand; peptides without Tyr show the background;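 note: 11-residue human phosphosite peptides and single-mutation variants displayed on the E. coli surface, counted by deep sequencing, each peptide's frequency after selection divided by its frequency in the unselected input library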;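 note: frequency after pTyr selection over input frequency; kinase dosed for 20-30% of maximal phosphorylation in three min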
Sequence (Q12866 whole entry, looked up): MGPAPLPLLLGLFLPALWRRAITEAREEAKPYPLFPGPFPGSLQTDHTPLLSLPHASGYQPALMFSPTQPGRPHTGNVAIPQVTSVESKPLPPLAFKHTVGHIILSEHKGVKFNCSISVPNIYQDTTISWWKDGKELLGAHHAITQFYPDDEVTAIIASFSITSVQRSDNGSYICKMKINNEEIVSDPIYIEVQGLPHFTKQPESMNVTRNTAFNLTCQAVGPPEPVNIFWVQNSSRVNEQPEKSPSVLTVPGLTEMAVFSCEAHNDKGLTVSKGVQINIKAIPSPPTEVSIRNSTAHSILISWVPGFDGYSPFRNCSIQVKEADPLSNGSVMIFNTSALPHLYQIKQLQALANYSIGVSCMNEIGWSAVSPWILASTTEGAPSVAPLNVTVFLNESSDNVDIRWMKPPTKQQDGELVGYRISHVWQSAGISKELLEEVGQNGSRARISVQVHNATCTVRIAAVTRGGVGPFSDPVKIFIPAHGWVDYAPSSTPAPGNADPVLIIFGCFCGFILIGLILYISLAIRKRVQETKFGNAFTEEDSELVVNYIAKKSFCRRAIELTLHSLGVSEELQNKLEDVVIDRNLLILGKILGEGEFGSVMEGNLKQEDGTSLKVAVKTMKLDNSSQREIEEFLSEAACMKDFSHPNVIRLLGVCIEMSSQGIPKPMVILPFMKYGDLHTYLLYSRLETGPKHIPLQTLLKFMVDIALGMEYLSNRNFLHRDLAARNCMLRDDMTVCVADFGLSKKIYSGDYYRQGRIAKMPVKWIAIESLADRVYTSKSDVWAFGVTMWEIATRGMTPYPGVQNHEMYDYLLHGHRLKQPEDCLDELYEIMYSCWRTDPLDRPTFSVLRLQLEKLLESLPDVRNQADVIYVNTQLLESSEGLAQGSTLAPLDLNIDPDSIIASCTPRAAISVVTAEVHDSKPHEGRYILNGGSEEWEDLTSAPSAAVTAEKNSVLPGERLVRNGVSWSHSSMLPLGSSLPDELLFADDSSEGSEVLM
Class membership depends on phosphorylation enrichment alone; the intervals are category 1: < 0.5; category 2: ≥ 0.5 and < 0.6; category 3: ≥ 0.6

entrysequence="CASQLCPRHKH [DCTN4_Y263_Y263C]" experimentalsystem="MERTK (UniProt Q12866)" label="category 1"
entrysequence="TLERHYEELQA [SPTBN2_Y834]" experimentalsystem="MERTK (UniProt Q12866)" label="category 2"
entrysequence="GESQGYDIMEP [MSH2_Y863]" experimentalsystem="MERTK (UniProt Q12866)" label="category 1"
entrysequence="FTHSDYQFSQR [PKP2_Y166_YF]" experimentalsystem="MERTK (UniProt Q12866)" label="category 1"
entrysequence="ISSLPYMKMIF [SLC4A11_Y853_M848I]" experimentalsystem="MERTK (UniProt Q12866)" label="category 3"
entrysequence="GHNDVYISKHV [GRIN2A_Y1423_E1426K]" experimentalsystem="MERTK (UniProt Q12866)" label="category 1"
entrysequence="RRVLVYGDRGA [QDPR_Y16_G18D]" experimentalsystem="MERTK (UniProt Q12866)" label="category 1"
entrysequence="LINPKYSVEEE [PCDH19_Y27_L25P]" experimentalsystem="MERTK (UniProt Q12866)" label="category 3"
entrysequence="RESYKYFPSSL [CXXC1_Y218]" experimentalsystem="MERTK (UniProt Q12866)" label="category 3"
entrysequence="RMDGTYACSFT [FLNB_Y704_YF]" experimentalsystem="MERTK (UniProt Q12866)" label="category 3"

Incoming: Could you tell me which band RKETFYILSCR [GUCY2C_Y681_T682I] belongs to?
Outgoing: category 2

Incoming: Could you tell me which band TYGQVYKGPHV [TNIK_Y40_R43P] belongs to?
Outgoing: category 3

Incoming: Could you tell me which band GVRLFYRVRES [RB1_Y454_M457R_YF] belongs to?
Outgoing: category 1

Incoming: Could you tell me which band ELPEKYSQNIC [PKP2_Y626_Y631C] belongs to?
Outgoing: category 2

###

target: Fyn (UniProt P06241); experiment: phosphorylation enrichment, bacterial display (enrichment ratio); higher = better substrate or ligand; peptides without Tyr show the background
Sequence (P06241 whole entry, looked up): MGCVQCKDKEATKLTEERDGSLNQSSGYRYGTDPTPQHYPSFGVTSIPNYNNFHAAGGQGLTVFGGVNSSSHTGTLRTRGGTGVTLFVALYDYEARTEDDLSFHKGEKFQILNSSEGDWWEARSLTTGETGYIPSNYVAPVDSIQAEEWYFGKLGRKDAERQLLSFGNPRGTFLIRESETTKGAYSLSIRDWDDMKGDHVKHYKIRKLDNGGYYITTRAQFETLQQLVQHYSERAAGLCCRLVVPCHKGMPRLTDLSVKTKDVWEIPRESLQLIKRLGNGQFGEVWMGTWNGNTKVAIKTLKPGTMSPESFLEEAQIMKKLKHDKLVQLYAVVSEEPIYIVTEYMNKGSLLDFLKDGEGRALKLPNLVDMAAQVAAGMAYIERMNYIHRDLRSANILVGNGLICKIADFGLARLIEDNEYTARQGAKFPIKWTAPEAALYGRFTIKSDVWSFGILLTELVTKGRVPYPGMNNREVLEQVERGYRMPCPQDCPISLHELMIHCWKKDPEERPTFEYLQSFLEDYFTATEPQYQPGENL
parameterMeasured: phosphorylation enrichment
// keep it numeric: no unit symbol after the value

Worked examples, 3 sequences total:
entrysequence="SHTPSYCDEWL [RITA1_Y109_S113W]" recordedmeasurement=0.473
entrysequence="RLRVVYPWTQR [HBB_Y36_L33R]" recordedmeasurement=0.6
entrysequence="ADGLEYSRTGL [MMUT_Y287]" recordedmeasurement=0.544

Entry EEGNPYYSSTR [MCCC2_Y520_A524T] ; phosphorylation enrichment = 0.921

Entry FVSIVCNDSGE [TSC2_Y1650_Y1650C] ; phosphorylation enrichment = 0.476

Entry SHGKRYRVPSD [HHIPL2_Y395] ; phosphorylation enrichment = 0.395

Entry ARAFIYAIIPA [ACKtide_2014] ; phosphorylation enrichment = 2.65

###

biological target: Fes (UniProt P07332); experiment: phosphorylation enrichment, bacterial display (enrichment ratio); higher = better substrate or ligand; peptides without Tyr show the background
Sequence (P07332 whole entry, looked up): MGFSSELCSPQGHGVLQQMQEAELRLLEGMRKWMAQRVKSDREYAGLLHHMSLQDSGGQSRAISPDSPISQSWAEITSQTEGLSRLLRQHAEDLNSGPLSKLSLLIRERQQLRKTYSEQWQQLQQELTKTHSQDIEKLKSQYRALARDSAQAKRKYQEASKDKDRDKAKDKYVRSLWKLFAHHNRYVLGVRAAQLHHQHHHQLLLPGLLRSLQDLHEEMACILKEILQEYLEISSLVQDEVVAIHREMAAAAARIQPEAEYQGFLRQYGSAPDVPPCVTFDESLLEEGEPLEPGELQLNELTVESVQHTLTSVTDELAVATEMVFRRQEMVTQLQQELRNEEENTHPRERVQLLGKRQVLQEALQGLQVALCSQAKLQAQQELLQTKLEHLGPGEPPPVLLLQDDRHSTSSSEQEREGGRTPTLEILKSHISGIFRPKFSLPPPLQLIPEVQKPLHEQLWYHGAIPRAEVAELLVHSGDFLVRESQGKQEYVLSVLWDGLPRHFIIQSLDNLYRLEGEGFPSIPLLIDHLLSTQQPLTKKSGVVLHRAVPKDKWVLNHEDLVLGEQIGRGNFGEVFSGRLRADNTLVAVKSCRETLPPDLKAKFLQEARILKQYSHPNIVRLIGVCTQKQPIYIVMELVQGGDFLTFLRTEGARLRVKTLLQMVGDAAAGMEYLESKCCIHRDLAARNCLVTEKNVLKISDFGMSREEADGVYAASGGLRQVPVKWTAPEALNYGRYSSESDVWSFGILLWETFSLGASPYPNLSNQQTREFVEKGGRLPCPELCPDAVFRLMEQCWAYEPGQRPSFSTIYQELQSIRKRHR
Reported phosphorylation enrichment values for the following sequences.
// keep it numeric: no unit symbol after the value

Worked examples, 4 sequences total:
entrysequence="EYQKKYSDADI [CKAP5_Y1860_K1857Q]" parametermeasured="phosphorylation enrichment" recordedmeasurement=0.998
entrysequence="TGVRDYIHVVD [GALE_Y241]" parametermeasured="phosphorylation enrichment" recordedmeasurement=1.01
entrysequence="FFRCHYPLTTL [TNS4_Y644_R642C]" parametermeasured="phosphorylation enrichment" recordedmeasurement=1.01
entrysequence="LDLSYYHTSSS [EMD_Y182_P183H]" parametermeasured="phosphorylation enrichment" recordedmeasurement=0.977

Continue with the next sequence.
Note to self: phosphorylation enrichment of MILSAYALGGL [CPS1_Y590_R587L] with Fes (UniProt P07332) was 1
